# credit: BindingDB's records for doi:10.7270/Q28G8J4C

# Target Under Test: POsterior Segregation (Caenorhabditis elegans, UniProt G5EF15)
# Sequence (G5EF15 whole entry): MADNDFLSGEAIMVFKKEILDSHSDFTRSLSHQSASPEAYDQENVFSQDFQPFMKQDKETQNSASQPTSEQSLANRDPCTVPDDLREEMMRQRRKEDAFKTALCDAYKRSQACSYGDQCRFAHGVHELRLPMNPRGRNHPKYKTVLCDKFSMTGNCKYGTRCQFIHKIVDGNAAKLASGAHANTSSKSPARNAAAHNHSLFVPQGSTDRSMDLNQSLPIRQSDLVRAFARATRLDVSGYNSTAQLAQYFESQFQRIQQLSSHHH
# Assay Overview: inhibitors of POS-1/mex-3 RNA binding, dose response, biochemical, fluorescence polarization (AID 1964)
pEC50: −log10 of the molar value.
Observation Type: pEC50

Query block: Item Cc1cc(-c2ccccc2)nc(N=NCc2ccc(O)cc2O)n1 has what recorded pEC50?
Result block: < 3.52

Query block: Item Cc1nnc(N2C(=O)C(=O)C(C(=O)c3ccco3)C2c2cccc3ccccc23)s1 (stereo not drawn) has what recorded pEC50?
Result block: < 3.52

Query block: Item C=CCOc1cccc(C2C(C(=O)c3ccco3)C(=O)C(=O)N2Cc2ccco2)c1 (stereo not drawn) has what recorded pEC50?
Result block: < 3.52

###

Each item that follows carries a reported EC50.
# Target Under Test: POsterior Segregation (Caenorhabditis elegans, UniProt G5EF15)
# Assay Overview: inhibitors of POS-1/mex-3 RNA binding, dose response, biochemical, fluorescence polarization (AID 1964)

1. CC1(C)CC(=O)C2=C(C1)OC(=N)C(C#N)C21C(=O)N(CN2CCOCC2)c2ccccc21 (stereo not drawn) | > 300 µM
2. N#CC1C(=N)OC2=C(C(=O)CCC2)C1c1cc2c(cc1Br)OCO2 (stereo not drawn) | > 300 µM

Consider now this further compound.
Query block: Item COC1=CC([N+](=O)[O-])=CC(/C=N/NC(=O)CC#N)C1=O (stereo not drawn) has what recorded EC50?
Result block: > 300 µM
